# Subject Of Test: ATM enzyme (Homo sapiens, UniProt Q13315)
# Construct: purchased Eurofins 14-933
# Sequence (Q13315 whole entry): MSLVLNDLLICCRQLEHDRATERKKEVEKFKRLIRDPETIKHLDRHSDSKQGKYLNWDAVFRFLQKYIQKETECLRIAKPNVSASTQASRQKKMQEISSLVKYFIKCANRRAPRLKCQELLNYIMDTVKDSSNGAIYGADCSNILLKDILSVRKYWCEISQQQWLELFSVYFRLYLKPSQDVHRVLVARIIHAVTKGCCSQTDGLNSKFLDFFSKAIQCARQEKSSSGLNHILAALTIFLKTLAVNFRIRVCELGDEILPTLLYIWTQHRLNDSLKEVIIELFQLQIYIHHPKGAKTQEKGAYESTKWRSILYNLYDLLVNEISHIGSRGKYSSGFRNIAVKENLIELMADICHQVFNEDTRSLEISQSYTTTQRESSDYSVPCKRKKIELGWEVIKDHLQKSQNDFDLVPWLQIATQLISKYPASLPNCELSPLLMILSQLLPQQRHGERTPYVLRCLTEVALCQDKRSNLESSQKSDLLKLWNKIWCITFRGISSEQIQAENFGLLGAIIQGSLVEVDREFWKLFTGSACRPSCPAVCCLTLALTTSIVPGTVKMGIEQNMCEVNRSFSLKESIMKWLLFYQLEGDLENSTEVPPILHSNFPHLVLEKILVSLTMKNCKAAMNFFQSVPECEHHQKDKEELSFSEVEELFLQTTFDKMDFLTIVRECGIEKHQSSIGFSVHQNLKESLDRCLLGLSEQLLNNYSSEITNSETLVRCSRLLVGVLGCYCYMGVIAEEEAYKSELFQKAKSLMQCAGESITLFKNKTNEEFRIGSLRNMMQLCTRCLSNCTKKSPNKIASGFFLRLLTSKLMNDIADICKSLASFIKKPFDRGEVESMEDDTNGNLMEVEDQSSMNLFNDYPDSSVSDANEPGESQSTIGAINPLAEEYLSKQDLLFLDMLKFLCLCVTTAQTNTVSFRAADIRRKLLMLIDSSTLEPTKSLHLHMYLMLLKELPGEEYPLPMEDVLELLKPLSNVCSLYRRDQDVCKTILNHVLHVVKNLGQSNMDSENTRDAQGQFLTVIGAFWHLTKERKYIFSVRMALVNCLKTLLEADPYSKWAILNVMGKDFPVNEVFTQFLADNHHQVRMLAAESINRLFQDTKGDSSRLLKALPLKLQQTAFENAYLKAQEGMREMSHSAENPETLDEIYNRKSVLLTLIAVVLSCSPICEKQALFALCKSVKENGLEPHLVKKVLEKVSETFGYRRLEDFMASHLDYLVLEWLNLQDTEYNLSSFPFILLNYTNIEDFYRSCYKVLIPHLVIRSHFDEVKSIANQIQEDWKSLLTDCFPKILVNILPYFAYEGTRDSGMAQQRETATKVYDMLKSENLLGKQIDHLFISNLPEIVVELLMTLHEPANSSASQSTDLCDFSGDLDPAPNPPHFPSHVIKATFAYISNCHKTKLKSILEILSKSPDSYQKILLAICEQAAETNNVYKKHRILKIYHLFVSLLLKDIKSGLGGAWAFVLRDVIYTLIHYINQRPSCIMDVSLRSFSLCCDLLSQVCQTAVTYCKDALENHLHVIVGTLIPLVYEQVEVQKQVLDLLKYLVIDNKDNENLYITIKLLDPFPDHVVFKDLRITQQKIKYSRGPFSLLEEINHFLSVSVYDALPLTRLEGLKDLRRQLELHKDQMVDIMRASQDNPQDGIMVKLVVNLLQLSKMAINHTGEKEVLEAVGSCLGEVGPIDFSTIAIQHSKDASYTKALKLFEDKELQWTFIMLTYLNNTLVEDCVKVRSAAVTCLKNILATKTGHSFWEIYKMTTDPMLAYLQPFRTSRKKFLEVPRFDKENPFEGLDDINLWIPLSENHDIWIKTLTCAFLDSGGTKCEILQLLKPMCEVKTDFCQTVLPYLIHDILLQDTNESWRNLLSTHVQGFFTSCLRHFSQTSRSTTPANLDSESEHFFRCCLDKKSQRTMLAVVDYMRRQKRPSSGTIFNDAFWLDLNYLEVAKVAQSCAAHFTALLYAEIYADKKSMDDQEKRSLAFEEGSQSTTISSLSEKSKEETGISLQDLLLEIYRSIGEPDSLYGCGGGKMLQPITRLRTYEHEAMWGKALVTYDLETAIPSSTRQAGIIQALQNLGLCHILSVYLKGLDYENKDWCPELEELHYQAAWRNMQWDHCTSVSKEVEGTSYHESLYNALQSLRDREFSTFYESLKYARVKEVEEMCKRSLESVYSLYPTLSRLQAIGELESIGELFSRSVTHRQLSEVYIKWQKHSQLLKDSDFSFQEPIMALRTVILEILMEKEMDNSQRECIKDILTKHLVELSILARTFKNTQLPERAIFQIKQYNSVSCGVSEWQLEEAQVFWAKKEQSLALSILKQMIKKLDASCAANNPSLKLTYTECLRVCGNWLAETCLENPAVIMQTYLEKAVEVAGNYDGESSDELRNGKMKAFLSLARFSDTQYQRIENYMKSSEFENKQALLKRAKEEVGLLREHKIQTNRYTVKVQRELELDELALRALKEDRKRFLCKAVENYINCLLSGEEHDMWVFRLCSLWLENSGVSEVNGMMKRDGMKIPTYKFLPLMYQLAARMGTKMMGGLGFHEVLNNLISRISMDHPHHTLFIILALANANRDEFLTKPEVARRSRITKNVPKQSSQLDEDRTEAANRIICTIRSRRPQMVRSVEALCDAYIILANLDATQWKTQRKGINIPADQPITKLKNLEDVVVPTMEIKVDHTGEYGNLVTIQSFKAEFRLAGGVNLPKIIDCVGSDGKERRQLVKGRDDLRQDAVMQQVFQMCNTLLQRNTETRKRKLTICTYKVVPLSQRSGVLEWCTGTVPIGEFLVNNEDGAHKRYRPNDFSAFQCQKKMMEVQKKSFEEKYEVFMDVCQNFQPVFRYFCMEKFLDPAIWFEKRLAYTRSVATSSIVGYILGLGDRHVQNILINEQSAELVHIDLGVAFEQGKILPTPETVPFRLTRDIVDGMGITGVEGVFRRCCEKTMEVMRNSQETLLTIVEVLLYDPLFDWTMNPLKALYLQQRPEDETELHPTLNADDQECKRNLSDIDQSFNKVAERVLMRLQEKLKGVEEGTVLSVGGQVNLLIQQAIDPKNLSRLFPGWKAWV
# Method Summary: ATM kinase assay (HTRF)
# Assay type: biochemical
# Condition Details: 0.5 h; C 1 μm; read-out: Inh (%) ATM kinase inhibition rate
Entries and their inhibition at 1 µM

Compound	Subject Of Test	inhibition at 1 µM
CN(C)C1CCN(c2ccc(-c3ccc4ncn5c(c(C6CCOCC6)c(=O)n5C)c4c3)cc2Cl)CC1 [Example 7]	ATM enzyme (Homo sapiens, UniProt Q13315)	91%
Cn1c(=O)c(C2CCOCC2)c2c3cc(-c4ccc(OCCCN5CCCCC5)nc4)ccc3ncn21 [Example 3]	ATM enzyme (Homo sapiens, UniProt Q13315)	93%
CN(C)CCCOc1ccc(-c2ccc3ncn4c(c(C5CCOCC5)c(=O)n4C)c3c2)cc1C(F)(F)F [Example 5]	ATM enzyme (Homo sapiens, UniProt Q13315)	93%
CCNC1CCN(c2ccc(-c3ccc4ncn5c(c(C6CCOCC6)c(=O)n5C)c4c3)cc2C(F)(F)F)CC1 [Example 11]	ATM enzyme (Homo sapiens, UniProt Q13315)	95%
CCn1c(=O)c(C2CCOCC2)c2c3cc(-c4ccc(OCCCN(C)C)nc4)ccc3ncn21 [Example 26]	ATM enzyme (Homo sapiens, UniProt Q13315)	66.5%
CNC1CCN(c2ccc(-c3ccc4ncn5c(c(C6CCOCC6)c(=O)n5C)c4c3)cc2C(F)(F)F)CC1 [Example 10]	ATM enzyme (Homo sapiens, UniProt Q13315)	95%
CN(C)CCCOc1ccc(-c2ccc3ncn4c(c(C5CCOCC5)c(=O)n4C)c3c2)cn1 [Example 2]	ATM enzyme (Homo sapiens, UniProt Q13315)	87%
CN(C)CCCOc1ccc(-c2ccc3ncn4[nH]c(=O)c(C5CCOCC5)c4c3c2)cn1 [Example 1]	ATM enzyme (Homo sapiens, UniProt Q13315)	0%
CN(C)C1CCN(c2ccc(-c3ccc4ncn5c(c(C6CCOCC6)c(=O)n5C)c4c3)cc2C(F)(F)F)CC1 [Example 8]	ATM enzyme (Homo sapiens, UniProt Q13315)	99%
CN(C)C1CCN(c2ccc(-c3ccc4ncn5c(c(C6CCOCC6)c(=O)n5C)c4c3)cc2F)CC1 [Example 6]	ATM enzyme (Homo sapiens, UniProt Q13315)	94%
